- EXPERIMENTAL SYSTEM: NMDA receptor (Rattus norvegicus)
- Construct: well washed rat cortical membranes (200 μg); from tissue; host or cells: rat cerebral cortex membranes
- ASSAY PROCEDURE: [3H] MK-801 Binding Assay (MK-801 Glycine Site Binding Assay: Rat Cortex)
- MEASUREMENT PARAMETERS: Table 3; read-out: MK-801 Glycine Site Binding Assay: Rat Cortex EC50
I'd be grateful if you could share measured EC50 for these entries.
The response must be a number in pM with no trailing unit.

Memo: CC(O)C(c1ncccn1)N1CC2(CCC(C)N2C(=O)OC(C)(C)C)C1=O (centres unmarked) , reported EC50: 110

Memo: CC(O)C(c1ncccn1)N1C(=O)C2(CCCN2C(=O)OC(C)(C)C)C1C (centres unmarked) , reported EC50: 135

---

- EXPERIMENTAL SYSTEM: NMDA receptor (Rattus norvegicus, UniProt P35439)
- Construct: well washed rat cortical membranes (200 μg); from tissue; host or cells: rat cerebral cortex membranes
- ASSAY PROCEDURE: [3H] MK-801 Binding Assay (MK-801 Glycine Site Binding Assay: Rat Cortex)
- MEASUREMENT PARAMETERS: Table 2; read-out: MK-801 Glycine Site Binding Assay: Rat Cortex EC50
READOUT KIND: EC50 (nM)
The response must be a number in nM with no trailing unit.

Considering CC(O)C(c1ncccn1)N1CC2(CCCN2)C1=O (stereo not shown) , its EC50 with NMDA receptor (Rattus norvegicus, UniProt P35439) was recorded as 0.288
